All values here come from ChEMBL document CHEMBL3217563.

assay summary: Metabolic stability in human liver microsomes assessed as compound remaining at 10 ug/ml after 60 mins by LC/MS/MS analysis relative to control
Type: ADME
experimental conditions: read-out: Stability
measured parameter: remaining at 1 h, 10 ug/ml (%)

INSERT INTO assay_data (compound, measured_parameter, value) VALUES
  ('CN1CCN(C2CCN(C(=O)CC3CCC4(CC3)OOC3(OO4)C4CC5CC(C4)CC3C5)CC2)CC1 (configuration not stated)', 'remaining at 1 h, 10 ug/ml', 39.5),
  ('NC1CCN(C2CCC3(CC2)OOC2(OO3)C3CC4CC(C3)CC2C4)CC1 (configuration not stated)', 'remaining at 1 h, 10 ug/ml', 57.4);
